All figures here come from patent US20130267494A1.

target: human serotonin transporter (Homo sapiens); construct: expressed in transfected cells; assay: Inhibitory action on human serotonin transporter ([3H]-5-hydroxytryptamine uptake in CHO cells); assay type: cell-based; details: CHO, compound 1 μM; relative to inhibitory activity of 10 μM Paroxetine as 100%; read-out: inhibitory rate (%)
Sequence (P31645 whole entry): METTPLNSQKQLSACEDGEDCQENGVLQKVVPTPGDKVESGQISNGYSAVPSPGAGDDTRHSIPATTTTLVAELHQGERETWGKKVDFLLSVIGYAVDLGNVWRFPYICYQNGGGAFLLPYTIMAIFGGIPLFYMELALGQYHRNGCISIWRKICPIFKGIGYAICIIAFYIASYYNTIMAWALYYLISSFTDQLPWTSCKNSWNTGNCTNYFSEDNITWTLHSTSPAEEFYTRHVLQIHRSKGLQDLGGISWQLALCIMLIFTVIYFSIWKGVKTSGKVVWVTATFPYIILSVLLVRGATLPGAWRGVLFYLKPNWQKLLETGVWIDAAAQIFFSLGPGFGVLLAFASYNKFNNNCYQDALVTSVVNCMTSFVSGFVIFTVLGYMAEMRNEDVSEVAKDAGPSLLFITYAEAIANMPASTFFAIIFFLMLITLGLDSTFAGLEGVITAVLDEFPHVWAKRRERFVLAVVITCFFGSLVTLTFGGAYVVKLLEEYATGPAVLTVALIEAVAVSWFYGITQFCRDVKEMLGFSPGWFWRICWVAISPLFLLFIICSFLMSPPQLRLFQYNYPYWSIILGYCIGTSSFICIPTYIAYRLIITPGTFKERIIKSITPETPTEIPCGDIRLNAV
Structures can show the parent of a compound that is named as a salt.
observation type: inhibition at 1 µM (%)

- molecule: "O=C(O)c1ccnn(C[C@@H]2CNCCO[C@H]2c2ccc(Cl)c(F)c2)c1=O"
  observed result: 78
- molecule: "OC[C@H]1CNCCO[C@@H]1c1ccc(Cl)c(Cl)c1 [Example 73, monohydrochloride]"
  observed result: 97
- molecule: "OC[C@H](O)[C@H]1OCCNC[C@H]1c1ccc(Cl)c(Cl)c1"
  observed result: 28

[P] CS(=O)(=O)C[C@@]1(O)CNCCO[C@@H]1c1ccc(Cl)c(F)c1 (racemic) [Example 538, monohydrochloride]
[Q] Cc1ccc([C@H]2OCCNC[C@@H]2CNS(C)(=O)=O)cc1Cl (relative stereo) [Example 409, monohydrochloride]
Task: I'm curious, which of these has a smaller inhibition at 1 µM number: P or Q ? Your answer should be the label of the entry you select.
Result: Q
